Origin of the recorded values: paper PMC6403271

Type: cell-based, human
testParameters: human
Square brackets hold non-standard residues; d marks the D form. Peptide text beside a SMILES is read from it. N(1-naphthylmethyl)Gly = O=C(O)CNCc1cccc2ccccc12; 2Nal = N[C@@H](Cc1ccc2ccccc2c1)C(=O)O; d1Nal = N[C@H](Cc1cccc2ccccc12)C(=O)O; d2Nal = N[C@H](Cc1ccc2ccccc2c1)C(=O)O; N(4-MeBn)Gly = Cc1ccc(CNCC(=O)O)cc1; Nle = CCCC[C@H](N)C(=O)O; NBuGly = CCCCNCC(=O)O
endpointName: hemolysis at 1 h, 150 µM (%)
Number in %, nothing else.

Consider the worked cases shown below.
Item: CCCCN(CC(=O)N[C@@H](CCCCN)C(=O)N(CC(=O)N(CC(=O)N(CC(N)=O)Cc1cccc2ccccc12)Cc1ccc(C)cc1)Cc1cccc2ccccc12)C(=O)[C@H](CCCCN)NC(=O)[C@@H](N)CCCCN [B1] (H-KK[NBuGly]K[N(1-naphthylmethyl)Gly][N(4-MeBn)Gly][N(1-naphthylmethyl)Gly]-NH2) | hemolysis at 1 h, 150 µM: 32

Item: CCCC[C@H](NC(=O)[C@H](CCCCN)NC(=O)[C@H](CCCCN)NC(=O)[C@@H](N)CCCCN)C(=O)N[C@@H](Cc1ccc2ccccc2c1)C(=O)N[C@@H](Cc1ccc(O)cc1)C(=O)N[C@@H](Cc1ccc2ccccc2c1)C(N)=O [Compound 27] (H-KKK[Nle][2Nal]Y[2Nal]-NH2; N-terminus assumed) | hemolysis at 1 h, 150 µM: 54

Item: CC(C)C[C@@H](NC(=O)[C@H](CCCCN)NC(=O)[C@H](CCCCN)NC(=O)[C@@H](N)CCCCN)C(=O)N[C@H](Cc1cccc2ccccc12)C(=O)N[C@H](Cc1ccc(O)cc1)C(=O)N[C@H](Cc1cccc2ccccc12)C(N)=O [Compound 25] (H-KKK[dL][d1Nal][dY][d1Nal]-NH2; N-terminus assumed) | hemolysis at 1 h, 150 µM: 53

Item: CC(C)C[C@@H](NC(=O)[C@H](CCCCN)NC(=O)[C@@H](N)CCCCN)C(=O)N[C@@H](CCCCN)C(=O)N[C@H](Cc1cccc2ccccc12)C(=O)N[C@H](Cc1ccccc1)C(=O)N[C@H](Cc1cccc2ccccc12)C(N)=O [Compound 14] (H-KK[dL]K[d1Nal][dF][d1Nal]-NH2; N-terminus assumed) | hemolysis at 1 h, 150 µM: 58

***
Item: CC(C)C[C@@H](NC(=O)[C@H](CCCCN)NC(=O)[C@H](CCCCN)NC(=O)[C@@H](N)CCCCN)C(=O)N[C@H](Cc1ccc2ccccc2c1)C(=O)N[C@H](Cc1ccccc1)C(=O)N[C@H](Cc1ccc2ccccc2c1)C(N)=O [Compound 16] (H-KKK[dL][d2Nal][dF][d2Nal]-NH2; N-terminus assumed) | hemolysis at 1 h, 150 µM: 60

Item: CC(C)C[C@H](NC(=O)[C@H](CCCCN)NC(=O)[C@@H](N)CCCCN)C(=O)N[C@@H](CCCCN)C(=O)N[C@@H](Cc1ccc2ccccc2c1)C(=O)N[C@@H](Cc1ccccc1)C(=O)N[C@@H](Cc1ccc2ccccc2c1)C(N)=O [Compound 8] (H-KKLK[2Nal]F[2Nal]-NH2; N-terminus assumed) | hemolysis at 1 h, 150 µM: 34
